system_name: SARS-CoV-2 wild-type spike (S) protein (SARS-CoV-2, WT (MN908947), UniProt P0DTC2)
measurement_notes: cell-based or functional assay
Documented authentic virus IC50(μg/ml), Wild-type across a set of binders
Numeric answer only, unit µg/mL assumed.

Form field: reported authentic virus IC50(μg/ml), Wild-type of XGv347 (antibody, V domains shown) VH: QMQLVQSGPEVKKPGTSVKVSCKASGFTFTDVSSLQWVRQARGQRLEWIGWTVVGTGNTNYAPRFQERVTITTDKSTSTAYMELSSLRSEDTAVYYCAAPFCSETSCSDGFDLWGQGTKVTVSS VL: EIVLTQSPGTLSLSPGDRATLSCRASQSVRISYLAWYQQKPGQAPRLLISGSSSRATGIPDRFSASGSGTDFALTISRLEPEDFAVYYCQQYDNSPWTFGQGTKVEVK
0.0061

What about XGv282 (antibody, V domains shown) VH: QVQLVQSGAEVKKPGSSVKVSCKASGDTFSSYTFSWVRQAPGQGLEWMGRSIPIVGKAIYAQEFQGRVTISADRSTTTVYMELSSLRSDDTAVYYCARDQSGFDFFYYDHWGQGTLVAVSS VL: QSVLTQPPSASGTPGQRVTISCSGSGSNIGSNTINWYQQLPGTAPKVLIYRNNERPSGVPDRFSGSKSGTSASLTISGLQSEDEAYYHCAAWDDSLNGPVFGGGTKLTVL ?
0.00102

What about XGv289 (antibody, V domains shown) VH: QVQLVQSGAEVKKPGASLKVSCRASGYTFTSHFIHWVRQAPGQGLEWMGIINPSGGASYAQNFRDRVTMTTDPSTSTVYMELGSLRSEDTAVYYCARAEGSSWLGWFDPWGQGTLVTVSS VL: QSVLTQPPSASGTPGQRVTIPCSGSSSNIGNNYVYWYQQLPGTAPKLLVYGNNQRPSGVPDRFSVSKSGTSASLAISGLRSEDEADYYCAAWDDGLSGSGWVFGGGTKLTVL ?
0.0061

Each recorded value in this set is attributed to paper PMC8967717.
